# Test system: S. aureus
# assay name: antibiotic activity (MIC)
# Type: cell-based
# test conditions: Staphylococcus aureus; S. aureus; read-out: MIC
readout type: MIC

compound | MIC
C[C@H](CCC(=O)O)[C@H]1CC[C@H]2[C@@H]3CC[C@H]4C[C@@H](NCCCNCCCCN)CC[C@]4(C)[C@H]3CC[C@]12C [Compound 319] | 64 µg/mL
C[C@H](CCC(=O)O)[C@H]1CC[C@H]2[C@@H]3CC[C@H]4C[C@H](NCCCNCCCCN)CC[C@]4(C)[C@H]3CC[C@]12C [Compound 318] | 128 µg/mL
C[C@H](CCC(=O)O)[C@H]1CC[C@H]2[C@@H]3[C@H](O)C[C@@H]4C[C@H](NCCCNCCCCNCCCN)CC[C@]4(C)[C@H]3CC[C@]12C [Compound 412] | 8 µg/mL

Next, consider the following compound.
-- ask MIC for COC(=O)CC[C@@H](C)[C@H]1CC[C@H]2[C@@H]3[C@H](O)C[C@@H]4C[C@@H](NCCN)CC[C@]4(C)[C@H]3CC[C@]12C [Compound 409] ?
-- reply 32 µg/mL

====

# System: human microvascular cells
# assay name: inhibition of endothelial cell cord formation in vitro; also: key: +: Inhibition of angiogenesis; -: No inhibition of angiogenesis; Toxic; *: cell rounding @ 10 µg/ml
# Type: cell-based
# test conditions: 10.0 μg/ml
# Excerpt: Endothelial cells have the capacity in vitro to form tubular aggregates resembling capillaries in various early stages of formation. This conversion occurs under relatively specific conditions, in which essential growth factors along with an effective substratum are provided. It has been shown that both the interaction of growth factors with the endothelial cell and its attachment to a substratum activate the NHE. […]
readout type: effect on endothelial cord formation

# count of solved cases: 6
compound | effect on endothelial cord formation
C[C@H](CCC(=O)O)[C@H]1CC[C@H]2[C@@H]3[C@H](O)C[C@@H]4C[C@@H](NCCN)CC[C@]4(C)[C@H]3CC[C@]12C | +/T
COC(=O)CC[C@@H](C)[C@H]1CC[C@H]2[C@@H]3[C@H](O)C[C@@H]4C[C@H](NCCN)CC[C@]4(C)[C@H]3CC[C@]12C | +
COC(=O)CC[C@@H](C)[C@H]1CC[C@H]2[C@@H]3[C@H](O)C[C@@H]4C[C@@H](NCCCNCCCCNCCCN)CC[C@]4(C)[C@H]3CC[C@]12C | +
C[C@H](CCC(=O)O)[C@H]1CC[C@H]2[C@@H]3C[C@@H](O)[C@H]4C[C@@H](NCCCNCCCCNCCCN)CC[C@]4(C)[C@H]3CC[C@]12C | -
CC(C)CCC[C@@H](C)[C@H]1CC[C@H]2[C@@H]3CC[C@H]4C[C@@H](NCCCNCCCCNCCCN)CC[C@]4(C)[C@H]3CC[C@]12C | +
C[C@H](CCC(=O)O)[C@H]1CC[C@H]2[C@@H]3[C@H](O)C[C@@H]4C[C@H](NCCCNCCCCNCCCN)CC[C@]4(C)[C@H]3CC[C@]12C | +

-- ask Report effect on endothelial cord formation for CO[C@@H]1[C@H](OC(=O)/C=C/C=C/C=C/C=C/C(=O)O)CC[C@]2(CO2)[C@H]1[C@@]1(C)O[C@@H]1CC=C(C)C [Fumagillin, reference compound] please.
-- reply +

-- ask Look up effect on endothelial cord formation: "COC(=O)CC[C@@H](C)[C@H]1CC[C@H]2[C@@H]3C[C@@H](O)[C@H]4C[C@@H](NCCN)CC[C@]4(C)[C@H]3CC[C@]12C"
-- reply -

-- ask Which measured effect on endothelial cord formation value corresponds to "C[C@H](CCC(=O)O)[C@H]1CC[C@H]2[C@@H]3CC[C@H]4C[C@@H](NCCCNCCCCN)CC[C@]4(C)[C@H]3CC[C@]12C" ?
-- reply +

-- ask Consider the compound "C[C@H](CCC(=O)O)[C@H]1CC[C@H]2[C@@H]3[C@H](O)C[C@@H]4C[C@@H](NCCCNCCCCNCCCN)CC[C@]4(C)[C@H]3CC[C@]12C" and give its measured effect on endothelial cord formation.
-- reply +

meta.source: patent US5763430A
